So I've got a bunch of compounds here, and I need their MIC90 values.
System: Enterococcus sp.
Test: Antimicrobial activity against Enterococcus by broth dilution method
Assay type: functional
Settings: Enterococcus sp.

QUERY: Field request: MIC90 | item: C[C@H]1COc2c(N3CCN(C)CC3)c(F)cc3c(=O)c(C(=O)O)cn1c23.C[C@H]1COc2c(N3CCN(C)CC3)c(F)cc3c(=O)c(C(=O)O)cn1c23.O [LEVOFLOXACIN]
RESULT: > 16 µg/mL

QUERY: Field request: MIC90 | item: CO/N=C(\C(=O)N[C@@H]1C(=O)N2C(C(=O)O)=C(COC(C)=O)CS[C@H]12)c1csc(N)n1 [CEFOTAXIME]
RESULT: > 64 µg/mL

QUERY: Field request: MIC90 | item: CC(=O)NC[C@H]1CN(c2ccc(N3CCOCC3)c(F)c2)C(=O)O1 [LINEZOLID]
RESULT: 2 µg/mL

QUERY: Field request: MIC90 | item: Cn1nnc(-c2ccc(-c3ccc(N4C[C@H](CO)OC4=O)cc3F)cn2)n1 [TEDIZOLID]
RESULT: 0.5 µg/mL
